System: HOP-92 NSCLC
Assay: NCI-60 one-dose screen, 48 h
Details: 10 µM unless noted
Protocol: Growth inhibition of the HOP-92 human Non-Small Cell Lung tumor cell line is measured as a screen for anti-cancer activity. Cells are grown in 96 well plates and exposed to the test compound for 48 hours. Compounds are tested at a single concentration, which is 10^-5 M for most compounds. The reported endpoint is percent growth (GI% or GIPRCNT), where numbers from 0 - 100% represent growth inhibition, and numbers from -100% - 0 represent cell death. […]
Compounds without any hit were thinned out: in the full panel of roughly 83,000, 20% have a hit. Active and inactive are the calls of the source. Rule for the calls: active = growth percent below 10; inactive = the rest.
Classes used: Y = active, N = inactive

compound: COc1ccc(Cl)cc1NC(N)=S
target_of_assay: HOP-92 NSCLC
assigned_class: N
//
compound: COc1ccc(/C=C/C(=O)c2ccc(B(O)O)cc2)cc1O
target_of_assay: HOP-92 NSCLC
assigned_class: N
//
compound: CC(=O)N1Cc2ccccc2C(C)Cc2cc(Cl)ccc21 (stereo unspecified)
target_of_assay: HOP-92 NSCLC
assigned_class: N
//
compound: O=C(O)c1ccc(-n2cc(CNc3ccc(C(F)(F)F)cc3)c(-c3ccccc3)n2)cc1
target_of_assay: HOP-92 NSCLC
assigned_class: N
//
compound: COc1cc(C2C=C(C)N=C3SC=CN32)cc(OC)c1OC (stereo unspecified)
target_of_assay: HOP-92 NSCLC
assigned_class: N
//
compound: C=C1C(=O)O[C@H]2[C@H]1CC/C(COC(=O)NCc1cc(OC)cc(OC)c1)=C\CC[C@@]1(C)O[C@@H]21
target_of_assay: HOP-92 NSCLC
assigned_class: Y
//
compound: O=C(N/N=C/c1c(Cl)cccc1Cl)c1ccccc1Nc1ccnc(C(F)(F)F)c1
target_of_assay: HOP-92 NSCLC
assigned_class: N
//
compound: COc1cc(OC)c(C(=O)/C=C/c2cccc(C(F)(F)F)c2)c(OC)c1
target_of_assay: HOP-92 NSCLC
assigned_class: Y
//
compound: CCN1C(=O)/C(=c2\sc3n(c2=O)C2C(NN=3)N(CC)C(=S)N2CC)c2ccccc21 (stereo unspecified)
target_of_assay: HOP-92 NSCLC
assigned_class: N
//
compound: CCSc1nnc(NC(=O)COc2ccc(Cl)cc2C)s1
target_of_assay: HOP-92 NSCLC
assigned_class: N
//
compound: COc1cccc(NC(=O)Cn2cc3c(=O)oc4ccccc4c3n2)c1
target_of_assay: HOP-92 NSCLC
assigned_class: N
//
compound: O=C(c1ccncc1)N1N=C(c2ccc(Cl)cc2)CC1c1c[nH]c2ccccc12 (stereo unspecified)
target_of_assay: HOP-92 NSCLC
assigned_class: N
//
compound: CCCC1OC(c2ccc(C(C)C)cc2)OCC1CC (stereo unspecified)
target_of_assay: HOP-92 NSCLC
assigned_class: N
//
compound: C=CCN=C1NC(=O)/C(=C/c2cc(C(C)(C)C)c(O)c(C(C)(C)C)c2)S1
target_of_assay: HOP-92 NSCLC
assigned_class: N
//
compound: COc1ccc([N+](=O)[O-])c(/C=C/C(=O)c2ccccn2)c1
target_of_assay: HOP-92 NSCLC
assigned_class: N
//
compound: NC(=O)NC(=O)/C=C/C(=O)OCCCl
target_of_assay: HOP-92 NSCLC
assigned_class: N
//
compound: O=S(=O)(NCCNc1cc(-c2cn(-c3ccccc3)nc2-c2ccccc2)ccn1)c1cccc2ccccc12
target_of_assay: HOP-92 NSCLC
assigned_class: Y
//
compound: CCN(CC)c1cc(/C=C/c2ccc(OC)c(OC)c2)nc2cc(F)c(F)cc12
target_of_assay: HOP-92 NSCLC
assigned_class: Y
//
compound: COc1cc(/C=C/C(=O)c2ccc(NC(=O)CN3CCN(c4cc5c(cc4F)c(=O)c(C(=O)O)cn5C4CC4)CC3)cc2)cc(OC)c1OC
target_of_assay: HOP-92 NSCLC
assigned_class: Y
//
compound: COc1cccc(-c2nc3sccn3c2-c2ccnc(NCCNS(=O)(=O)c3ccccc3)n2)c1
target_of_assay: HOP-92 NSCLC
assigned_class: N
//
compound: CSc1ccccc1C#C/C=C\C#Cc1ccccc1N1CCCCC1=O
target_of_assay: HOP-92 NSCLC
assigned_class: N
